# GI50 annotations
Test system: MDA-MB-435

Some compounds with known GI50 results, for comparison:
- compound: "CCCCN(CCCC)CCCn1c(=O)c2c3ccccc3n(C)c2n2nnc(-c3ccccc3)c12"
  metric: "GI50"
  readout.value: "39 µM"
- compound: "CC1=C([Te]c2ccc(O)cc2)C(=O)c2ccccc2C1=O"
  metric: "GI50"
  readout.value: "2.35 µM"
- compound: "O=C(NN=C1CCCCC1)c1[nH]c2ccc(F)cc2c1-c1ccccc1"
  metric: "GI50"
  readout.value: "35.3 µM"
- compound: "COc1ccc(-c2nc(N3CCN(C(=O)C4CCCCC4)CC3)c3c4c(sc3n2)CCCC4)cc1"
  metric: "GI50"
  readout.value: "> 100 µM"
- compound: "O=C(NCc1ccncc1)C12CC3CC(C1)CC(c1ccc(Cl)cc1)(C3)C2"
  metric: "GI50"
  readout.value: "12.7 µM"

Tell me GI50 reported for CCN(CC)CCCC(C)N=c1cc(Nc2cc(=NC(C)CCCN(CC)CC)c3cc(OC)ccc3o2)oc2ccc(OC)cc12 (stereo unspecified)
0.871 µM

###

Test system: NCI-H226 lung
assay.comment: NCI tumour cell line growth inhibition, 48 h
# log10 TGI annotations
Scale: log10; quantity: TGI; unit before log: µM

- molecule: "CNC(=O)c1cccc2c(Nc3ccc(NS(C)(=O)=O)cc3OC)c3cccc(C)c3nc12"
  metric: "log10 TGI"
  readout.value: 0.02
- molecule: "CN(C)CCCNC(=O)c1cncnc1Nc1ccc(OCc2cccc(F)c2)c(Cl)c1"
  metric: "log10 TGI"
  readout.value: 1.29
- molecule: "COc1ccc(CNc2nc3cc(N)cc(N)c3nc2-c2ccccc2)cc1"
  metric: "log10 TGI"
  readout.value: 1.85
- molecule: "C[C@]12CC[C@H](O)CC1=CC[C@@H]1[C@@H]2CC[C@]2(C)C(=N/O)/C(=C/c3ccc([N+](=O)[O-])cc3)C[C@@H]12"
  metric: "log10 TGI"
  readout.value: 0.82
- molecule: "CN1CC(CNC(=O)OCc2ccccc2)CC2c3cccc4c3c(cn4C)CC21 (configuration not stated)"
  metric: "log10 TGI"
  readout.value: 0.96

Kindly consider the entry below.
Tell me log10 TGI reported for N#CS.N=C=S.N=C=S.[Cu+2].[NH2-].[NH2-].[NH2-].[NH2-].c1ccc2ncccc2c1
1.69

###

Tested on: UACC-62 melanoma
assay.comment: NCI tumour cell line growth inhibition, 48 h
metric: TGI

- molecule: "OCC1OC(n2cnc3c(Cl)nc(Cl)cc32)C(O)C1O (stereo not given)"
  TGI: "> 100 µM"
- molecule: "Cc1ccc(-c2nc(N3CCCNCC3)c3oc(-c4ccccc4)nc3n2)cc1"
  TGI: "3.3 µM"
- molecule: "CCOP(=O)(OCC)C(C(=O)OC)C(=O)C(=O)Nc1c(C)cc(Br)cc1C (stereo not given)"
  TGI: "> 100 µM"

Tell me TGI reported for COc1cc2c(cc1OC)C(=O)Cc1ccc(OC)c(OC)c1CN(C)CC2
> 100 µM

Tell me TGI reported for C=CCSSCC=C
> 100 µM

###

Test system: U251 CNS
assay.comment: NCI tumour cell line growth inhibition, 48 h
metric: TGI

Some molecules with known TGI results, for comparison:
- molecule: "COc1cccc(Cc2cc(=O)c3ccc(C)nc3[nH]2)c1"
  readout.value: "> 100 µM"
- molecule: "Cc1ccc(-c2nc(-c3cnccn3)n(C3OC(CO)C(O)C(O)C3O)n2)cc1 (centres undefined)"
  readout.value: "> 100 µM"

Tell me TGI reported for CCOP(=O)(OCC)C(C(=O)OC)C(=O)C(=O)Nc1c(C)cc(Br)cc1C (centres undefined)
> 100 µM

Tell me TGI reported for CCOc1ccc(NC(=O)C2=C(C)NC(C)=C(C(=O)Nc3ccc(OCC)cc3)C2c2ccccc2)cc1
> 100 µM
